# assay_protocol: Cytotoxicity counterscreen for inhibitors of SARS-CoV-2 cell entry (AID 1645845); further: nearly all actives have a fitted effect of over 50% in size
# reported_conditions: cell viability (SARS-CoV-2 entry assay cells); series mostly up to 57.1 µM
Records with an inconclusive call do not appear. Active and inactive are the calls of the source. The call rests on the fitted dose curve.
Form entry, call: pick from yes (active), no (inactive)

// known answers, use as guide
N[C@H](Cc1ccccc1)C(=O)O: no
C[C@]12CCC3c4ccc(OS(=O)(=O)O)cc4CCC3C1CCC2=O (stereo partly drawn): no
CC1(C)S[C@@H]2[C@H](NC(=O)C(C(=O)Oc3ccc4c(c3)CCC4)c3ccccc3)C(=O)N2[C@H]1C(=O)O (stereo partly drawn): no
CC(=O)O[C@@]12CO[C@@H]1C[C@H](O)[C@@]1(C)C(=O)[C@H](O)C3=C(C)[C@@H](O)C[C@@](O)([C@@H](OC(=O)c4ccccc4)[C@H]21)C3(C)C: no
NC(=O)[C@H]1O[C@@H](O)[C@H](O)[C@@H](O)[C@@H]1O: no

IN: I would be grateful if you could indicate the recorded call for "COc1cc(=C2C=c3ccccc3=N2)[nH]/c1=C/c1[nH]c(C)cc1C" .
OUT: yes

IN: Likewise for "CC(C)N(CCCNC(=O)Nc1ccc(C(C)(C)C)cc1)C[C@H]1O[C@@H](n2cc(Br)c3c(N)ncnc32)[C@H](O)[C@@H]1O" ?
OUT: yes

IN: Likewise for "COc1cc(OC)c(/C=C/S(=O)(=O)Cc2ccc(OC)c(OP(=O)(O)O)c2)c(OC)c1" ?
OUT: no
